These entries and their values trace back to paper PMC9545781.

Assay: Open-label clinical pharmacokinetic study of oral XBD173 and etifoxine in healthy volunteers (plasma LC-MSMS)
Type: in vivo, human
Conditions: human, plasma, po, 50 mg, 50 mg etifoxine single oral dose; participant 1
endpoint.label: Tmax (h)
Numbers only, in h.

Q. State its Tmax: CCNC1=Nc2ccc(Cl)cc2C(C)(c2ccccc2)O1 (stereo not shown) [etifoxine]
A. 3

###

Assay: Open-label clinical pharmacokinetic study of oral XBD173 and etifoxine in healthy volunteers (plasma LC-MSMS)
Assay type: in vivo, human
Settings: human, plasma, po, 90 mg, 90mg XBD173 single oral dose; 180 mins; participant 2
endpoint.label: concentration at 180 min (ng/mL)
Numbers only, in ng/mL.

Q. State its concentration at 180 min: `CCN(Cc1ccccc1)C(=O)Cn1c(=O)n(C)c2cnc(-c3ccccc3)nc21`
A. 23

###

Experiment: Open-label clinical pharmacokinetic study of oral XBD173 and etifoxine in healthy volunteers (plasma LC-MSMS)
Type: in vivo, human
Details: human, plasma, po, 90 mg, 90mg XBD173 single oral dose; 60 mins; Mean (SEM)
endpoint.label: concentration at 60 min (ng/mL)
Numbers only, in ng/mL.

Q. State its concentration at 60 min: CCN(Cc1ccccc1)C(=O)Cn1c(=O)n(C)c2cnc(-c3ccccc3)nc21 [XBD173]
A. 31.2

###

Assay: in vitro
Conditions: plasma, pH 7.4
endpoint.label: fraction unbound at 4 h, 1 μM

Q. State its fraction unbound at 4 h, 1 μM: `CCN(Cc1ccccc1)C(=O)Cn1c(=O)n(C)c2cnc(-c3ccccc3)nc21`
A. 0.0034

###

Assay: Open-label clinical pharmacokinetic study of oral XBD173 and etifoxine in healthy volunteers (plasma LC-MSMS)
Assay type: in vivo, human
Conditions: human, plasma, po, 90 mg, 90mg XBD173 single oral dose; 60 mins; participant 4
endpoint.label: concentration at 60 min (ng/mL)
Answers are plain numbers, in ng/mL.

Q. State its concentration at 60 min: CCN(Cc1ccccc1)C(=O)Cn1c(=O)n(C)c2cnc(-c3ccccc3)nc21 [XBD173]
A. 18.4

###

Assay: Open-label clinical pharmacokinetic study of oral XBD173 and etifoxine in healthy volunteers (plasma LC-MSMS)
Format: in vivo, human
Conditions: human, plasma, po, 90 mg, 90 mg XBD173 single oral dose; participant 2
endpoint.label: Tmax (h)
Give bare numbers, in h.

Q. State its Tmax: CCN(Cc1ccccc1)C(=O)Cn1c(=O)n(C)c2cnc(-c3ccccc3)nc21 [XBD173]
A. 4

###

Test: Open-label clinical pharmacokinetic study of oral XBD173 and etifoxine in healthy volunteers (plasma LC-MSMS)
Assay type: in vivo, human
Conditions: human, plasma, po, 50 mg, 50 mg etifoxine single oral dose; Median of 4 participants
endpoint.label: Tmax (h)
One number for each entry, in h.

Q. State its Tmax: CCNC1=Nc2ccc(Cl)cc2C(C)(c2ccccc2)O1 (stereo not shown) [etifoxine]
A. 2

###

Test: Open-label clinical pharmacokinetic study of oral XBD173 and etifoxine in healthy volunteers (plasma LC-MSMS)
Assay type: in vivo, human
Conditions: human, plasma, po, 50 mg, 50mg etifoxine single oral dose; 180 mins; participant 1
endpoint.label: concentration at 180 min
Please make sure the unit comes right after the number.

Q. State its concentration at 180 min: CCNC1=Nc2ccc(Cl)cc2C(C)(c2ccccc2)O1 (stereo not shown)
A. 24.2 ng/mL

###

Test: Open-label clinical pharmacokinetic study of oral XBD173 and etifoxine in healthy volunteers (plasma LC-MSMS)
Assay type: in vivo, human
Conditions: human, plasma, po, 50 mg, 50mg etifoxine single oral dose; 240 mins; participant 2
Procedure: This was a single centre, open‐label study enrolling 4 adult healthy volunteers (aged 35–65 y) irrespective of rs6971 genotype. Detailed inclusion and exclusion criteria are shown in the supplementary information. […] As a precaution, therefore, a long washout period was chosen. The first dose was taken at the clinical research facility and the participant was monitored for 4 hours. Subsequent doses were taken at home by the participant. On day 7, the participant returned for a final assessment. […]
endpoint.label: concentration at 240 min
Please make sure the unit comes right after the number.

Q. State its concentration at 240 min: CCNC1=Nc2ccc(Cl)cc2C(C)(c2ccccc2)O1 (stereo not shown)
A. 9.2 ng/mL
